meta.source: ChEMBL document CHEMBL1151757

Test system: Midbrain
Test method notes: Drug uptake in anesthetized cynomolgus monkey brain midbrain after 105 mins postinjection
Format: ADME, organism-based, Macaca fascicularis
Design: unit not given here
Condition label: in vivo, 1.75 h
Measured quantity: Drug uptake

- Compound: "O=C(OCCC[18F])C1C2CCC(CC1c1cccc(/C=C\\I)c1)N2 (stereo not given)"
  Observed: 4.82
- Compound: "O=C(OCCC[18F])C1C2CCC(CC1c1cccc(/C=C\\Br)c1)N2 (stereo not given)"
  Observed: 5.59
- Compound: "O=C(OCC[18F])C1C2CCC(CC1c1cccc(/C=C\\I)c1)N2 (stereo not given)"
  Observed: 4.34
- Compound: "O=C(OCC[18F])C1C2CCC(CC1c1cccc(/C=C\\Br)c1)N2 (stereo not given)"
  Observed: 4.87
- Compound: "O=C(OCC[18F])C1C2CCC(CC1c1ccc(/C=C\\I)cc1)N2 (stereo not given)"
  Observed: 4.55

---

Drug uptake values, listed per item
Tested on: Caudate
Test method notes: Drug uptake in anesthetized cynomolgus monkey brain caudate after 235 mins postinjection
Format: ADME, organism-based, Macaca fascicularis, Caudate nucleus
Condition label: in vivo

- Molecule: "O=C(OCC[18F])C1C2CCC(CC1c1ccc(/C=C\\I)cc1)N2 (stereo not given)"
  Drug uptake: 2.61
- Molecule: "O=C(OCCC[18F])C1C2CCC(CC1c1cccc(/C=C\\Br)c1)N2 (stereo not given)"
  Drug uptake: 3.28
- Molecule: "O=C(OCC[18F])C1C2CCC(CC1c1cccc(/C=C\\I)c1)N2 (stereo not given)"
  Drug uptake: 1.99
- Molecule: "O=C(OCC[18F])C1C2CCC(CC1c1cccc(/C=C\\Br)c1)N2 (stereo not given)"
  Drug uptake: 2.53
- Molecule: "O=C(OCCC[18F])C1C2CCC(CC1c1cccc(/C=C\\I)c1)N2 (stereo not given)"
  Drug uptake: 2.41

---

System: Putamen
Test method notes: Drug uptake in anesthetized cynomolgus monkey brain putamen after 215 mins postinjection
Type: ADME, organism-based, Macaca fascicularis
Condition label: in vivo
Measured quantity: Drug uptake

- Compound: "O=C(OCCC[18F])C1C2CCC(CC1c1cccc(/C=C\\Br)c1)N2 (stereo not given)"
  System under test: "Putamen"
  Observed: 3.51
- Compound: "O=C(OCC[18F])C1C2CCC(CC1c1cccc(/C=C\\I)c1)N2 (stereo not given)"
  System under test: "Putamen"
  Observed: 2.53
- Compound: "O=C(OCC[18F])C1C2CCC(CC1c1cccc(/C=C\\Br)c1)N2 (stereo not given)"
  System under test: "Putamen"
  Observed: 3.24
- Compound: "O=C(OCC[18F])C1C2CCC(CC1c1ccc(/C=C\\I)cc1)N2 (stereo not given)"
  System under test: "Putamen"
  Observed: 3.93
- Compound: "O=C(OCCC[18F])C1C2CCC(CC1c1cccc(/C=C\\I)c1)N2 (stereo not given)"
  System under test: "Putamen"
  Observed: 3.13

---

Test method notes: Ratio of drug uptake in putamen to cerebellum in anesthetized cynomolgus monkey after 45 mins postinjection
Format: ADME, organism-based, Macaca fascicularis
Condition label: in vivo, 0.75 h
Measured quantity: Ratio

- Compound: "O=C(OCC[18F])C1C2CCC(CC1c1cccc(/C=C\\I)c1)N2 (stereo not given)"
  Measured quantity: "Ratio"
  Observed: 1.2
- Compound: "O=C(OCCC[18F])C1C2CCC(CC1c1cccc(/C=C\\I)c1)N2 (stereo not given)"
  Measured quantity: "Ratio"
  Observed: 1.1
- Compound: "O=C(OCC[18F])C1C2CCC(CC1c1ccc(/C=C\\I)cc1)N2 (stereo not given)"
  Measured quantity: "Ratio"
  Observed: 1.4
- Compound: "O=C(OCCC[18F])C1C2CCC(CC1c1cccc(/C=C\\Br)c1)N2 (stereo not given)"
  Measured quantity: "Ratio"
  Observed: 1.2
- Compound: "O=C(OCC[18F])C1C2CCC(CC1c1cccc(/C=C\\Br)c1)N2 (stereo not given)"
  Measured quantity: "Ratio"
  Observed: 1.3

---

Reported Drug uptake values for a set of compounds
System: Medulla
Test method notes: Drug uptake in anesthetized cynomolgus monkey brain medulla after 145 mins postinjection
Format: ADME, organism-based, Macaca fascicularis
Condition label: in vivo
Measured quantity: Drug uptake

- Compound: "O=C(OCC[18F])C1C2CCC(CC1c1cccc(/C=C\\Br)c1)N2 (stereo not given)"
  System under test: "Medulla"
  Measured quantity: "Drug uptake"
  Observed: 3.92
- Compound: "O=C(OCCC[18F])C1C2CCC(CC1c1cccc(/C=C\\Br)c1)N2 (stereo not given)"
  System under test: "Medulla"
  Measured quantity: "Drug uptake"
  Observed: 4.91
- Compound: "O=C(OCC[18F])C1C2CCC(CC1c1ccc(/C=C\\I)cc1)N2 (stereo not given)"
  System under test: "Medulla"
  Measured quantity: "Drug uptake"
  Observed: 3.61
- Compound: "O=C(OCCC[18F])C1C2CCC(CC1c1cccc(/C=C\\I)c1)N2 (stereo not given)"
  System under test: "Medulla"
  Measured quantity: "Drug uptake"
  Observed: 4.24
- Compound: "O=C(OCC[18F])C1C2CCC(CC1c1cccc(/C=C\\I)c1)N2 (stereo not given)"
  System under test: "Medulla"
  Measured quantity: "Drug uptake"
  Observed: 3.04

---

Test method notes: Ratio of drug uptake in midbrain to cerebellum in anesthetized cynomolgus monkey after 2.5 mins postinjection
Type: ADME, organism-based, Macaca fascicularis
Condition label: in vivo
Measured quantity: Ratio

- Compound: "O=C(OCC[18F])C1C2CCC(CC1c1cccc(/C=C\\I)c1)N2 (stereo not given)"
  Measured quantity: "Ratio"
  Observed: 1.2
- Compound: "O=C(OCCC[18F])C1C2CCC(CC1c1cccc(/C=C\\I)c1)N2 (stereo not given)"
  Measured quantity: "Ratio"
  Observed: 0.9
- Compound: "O=C(OCC[18F])C1C2CCC(CC1c1ccc(/C=C\\I)cc1)N2 (stereo not given)"
  Measured quantity: "Ratio"
  Observed: 0.9
- Compound: "O=C(OCC[18F])C1C2CCC(CC1c1cccc(/C=C\\Br)c1)N2 (stereo not given)"
  Measured quantity: "Ratio"
  Observed: 1.3
- Compound: "O=C(OCCC[18F])C1C2CCC(CC1c1cccc(/C=C\\Br)c1)N2 (stereo not given)"
  Measured quantity: "Ratio"
  Observed: 1

---

Listed below: Drug uptake values for each entry.
Test method notes: Drug uptake in anesthetized cynomolgus monkey brain cerebellum after 175 mins postinjection
Assay type: ADME, organism-based, Macaca fascicularis
Condition label: in vivo

- Molecule: "O=C(OCCC[18F])C1C2CCC(CC1c1cccc(/C=C\\I)c1)N2 (stereo not given)"
  Drug uptake: 2.37
- Molecule: "O=C(OCC[18F])C1C2CCC(CC1c1cccc(/C=C\\Br)c1)N2 (stereo not given)"
  Drug uptake: 2.03
- Molecule: "O=C(OCC[18F])C1C2CCC(CC1c1ccc(/C=C\\I)cc1)N2 (stereo not given)"
  Drug uptake: 1.3
- Molecule: "O=C(OCC[18F])C1C2CCC(CC1c1cccc(/C=C\\I)c1)N2 (stereo not given)"
  Drug uptake: 1.57
- Molecule: "O=C(OCCC[18F])C1C2CCC(CC1c1cccc(/C=C\\Br)c1)N2 (stereo not given)"
  Drug uptake: 2.45

---

System: Medulla
Test method notes: Drug uptake in anesthetized cynomolgus monkey brain medulla after 18.5 mins postinjection
Type: ADME, organism-based, Macaca fascicularis
Condition label: in vivo
Rule: Drug uptake below 5 gives fulfilled, anything at or above gives not fulfilled.

- Molecule: "O=C(OCCC[18F])C1C2CCC(CC1c1cccc(/C=C\\Br)c1)N2 (stereo not given)"
  Cat: "not fulfilled"
- Molecule: "O=C(OCC[18F])C1C2CCC(CC1c1cccc(/C=C\\I)c1)N2 (stereo not given)"
  Cat: "fulfilled"
- Molecule: "O=C(OCCC[18F])C1C2CCC(CC1c1cccc(/C=C\\I)c1)N2 (stereo not given)"
  Cat: "fulfilled"
- Molecule: "O=C(OCC[18F])C1C2CCC(CC1c1cccc(/C=C\\Br)c1)N2 (stereo not given)"
  Cat: "fulfilled"
- Molecule: "O=C(OCC[18F])C1C2CCC(CC1c1ccc(/C=C\\I)cc1)N2 (stereo not given)"
  Cat: "fulfilled"

---

Tested on: Thalamus
Test method notes: Drug uptake in anesthetized cynomolgus monkey brain thalamus after 0.5 mins postinjection
Type: ADME, organism-based, Macaca fascicularis
Condition label: in vivo
Measured quantity: Drug uptake

- Compound: "O=C(OCCC[18F])C1C2CCC(CC1c1cccc(/C=C\\I)c1)N2 (stereo not given)"
  Measured quantity: "Drug uptake"
  Observed: 0.01
- Compound: "O=C(OCCC[18F])C1C2CCC(CC1c1cccc(/C=C\\Br)c1)N2 (stereo not given)"
  Measured quantity: "Drug uptake"
  Observed: 0.01
- Compound: "O=C(OCC[18F])C1C2CCC(CC1c1cccc(/C=C\\Br)c1)N2 (stereo not given)"
  Measured quantity: "Drug uptake"
  Observed: 0
- Compound: "O=C(OCC[18F])C1C2CCC(CC1c1ccc(/C=C\\I)cc1)N2 (stereo not given)"
  Measured quantity: "Drug uptake"
  Observed: 0
- Compound: "O=C(OCC[18F])C1C2CCC(CC1c1cccc(/C=C\\I)c1)N2 (stereo not given)"
  Measured quantity: "Drug uptake"
  Observed: 0
